# TARGET_OF_ASSAY: T1, ALKTG-EGFL (human ALK amino acids 648-1025) (human, UniProt Q9UM73 648-1025, N-linked glycans; EndoH-trimmed (deglycosylated) for crystals and SEC-MALLS)
# T1 construct: The C-terminal Fc-His6 tag was removed by caspase 3; also called ALK (in BLI, SEC-MALLS and ITC)
# PROTOCOL: BLI, biotinylated ALKAL2 R123E on streptavidin biosensors, ALKTG-EGFL in solution, dilution series 6.4 µM-400 nM
PARAMETER: pKd
Remember, pKd is on a log scale: it is -log10 of the molar concentration.

Asked: State its pKd: ALKAL2^R123E (residues 78-152) (ligand, human, UniProt Q6UX46 78-152, looked up, range 78-152; also called ALKAL2 site 1 mutant R123E) PSPEQRVEIVPRDLRMKDKFLKHLTGPLYFSPKCSKHFHRLYHNTEDCTIPAYYKRCARLLTRLAVSPVCMEDKQ
Given back: 5.46
